B1: library; a variant is named by its letters at N, in order (parent)
chain: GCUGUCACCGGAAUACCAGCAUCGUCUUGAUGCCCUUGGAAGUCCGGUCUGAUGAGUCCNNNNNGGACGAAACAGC

# Variants of: B1
# METHOD NOTES: normalized RNA/DNA level with ligand (relative to sTRSVctl = 100) (log10 (% of sTRSVctl)); higher = less ribozyme self-cleavage, higher mRNA level
# PROTOCOL CONDITIONS: ligand concentration (+) RNA-Seq: 5 mM, HEK293T, reporter: mCherry (pCS4076), ligand present: yes
VALUE TYPE: normalized RNA/DNA level with ligand (log10)
A bare number is all that is needed in reply.

Given the variant AUAAG , what is its reported normalized RNA/DNA level with ligand (log10)?
1.97

Given the variant UGAGU , what is its reported normalized RNA/DNA level with ligand (log10)?
2.02

Given the variant UUUAC , what is its reported normalized RNA/DNA level with ligand (log10)?
2.06

Given the variant GAUUG , what is its reported normalized RNA/DNA level with ligand (log10)?
1.98

Given the variant AAGAA , what is its reported normalized RNA/DNA level with ligand (log10)?
1.94

Given the variant CAAAU , what is its reported normalized RNA/DNA level with ligand (log10)?
1.95

Given the variant AAGUG , what is its reported normalized RNA/DNA level with ligand (log10)?
1.96

Given the variant UCGAA , what is its reported normalized RNA/DNA level with ligand (log10)?
1.97

Given the variant AGCGA , what is its reported normalized RNA/DNA level with ligand (log10)?
1.99

Given the variant UUUAU , what is its reported normalized RNA/DNA level with ligand (log10)?
2.02

Given the variant CUCAC , what is its reported normalized RNA/DNA level with ligand (log10)?
2.02

Given the variant AAGCC , what is its reported normalized RNA/DNA level with ligand (log10)?
2.03

Given the variant CCACC , what is its reported normalized RNA/DNA level with ligand (log10)?
1.99

Given the variant CGCAC , what is its reported normalized RNA/DNA level with ligand (log10)?
2.01

Given the variant CGUUU , what is its reported normalized RNA/DNA level with ligand (log10)?
2.06

Given the variant UGCAC , what is its reported normalized RNA/DNA level with ligand (log10)?
2.04

Given the variant GAAGU , what is its reported normalized RNA/DNA level with ligand (log10)?
1.94

Given the variant CUACC , what is its reported normalized RNA/DNA level with ligand (log10)?
1.97
